molecular target: PHGDH (Homo sapiens (Human), UniProt O43175); experiment: 3-Phosphoglycerate Dehydrogenase (PHGDH) Fluorescence Intensity Assay, run at two NAD/3-PG ratios: PHGDH_HIGH_NAD/3-PG (250 μM NAD/500 μM 3-PG) and PHGDH_500_NAD/3-PG (500 μM NAD/500 μM 3-PG); format: biochemical; conditions: 500 μM NAD/500 μM 3-PG; read-out: IC50 (PHGDH_500_NAD/3-PG)
Sequence (O43175 2-533 limits assumed): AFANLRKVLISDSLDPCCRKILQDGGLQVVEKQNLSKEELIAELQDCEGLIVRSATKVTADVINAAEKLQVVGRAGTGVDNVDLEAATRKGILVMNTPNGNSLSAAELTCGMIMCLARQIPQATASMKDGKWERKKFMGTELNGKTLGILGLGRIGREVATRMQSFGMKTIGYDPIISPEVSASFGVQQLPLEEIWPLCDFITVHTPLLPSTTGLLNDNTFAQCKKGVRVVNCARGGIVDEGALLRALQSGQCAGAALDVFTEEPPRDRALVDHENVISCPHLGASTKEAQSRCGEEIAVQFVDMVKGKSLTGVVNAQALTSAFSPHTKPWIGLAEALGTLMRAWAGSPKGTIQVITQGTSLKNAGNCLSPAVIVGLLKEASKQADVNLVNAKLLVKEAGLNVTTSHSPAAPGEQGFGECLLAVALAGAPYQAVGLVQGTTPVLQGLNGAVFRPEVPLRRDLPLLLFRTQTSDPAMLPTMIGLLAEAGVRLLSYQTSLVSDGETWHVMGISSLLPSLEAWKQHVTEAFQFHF
Cut-off 300 nM on IC50: below means Criterion met, at or above means Criterion not met.

Q: Does this compound meet the criterion IC50 < 300 nM? Cc1cc2c(cc(C(=O)N[C@H](CO)c3ccc([S@+]([O-])CC(=O)OC(C)C)cc3)n2C)c(F)c1F [Example 13-006]
Result: Criterion not met

Q: Does this compound meet the criterion IC50 < 300 nM? Cc1cc2c(cc(C(=O)N[C@H](CO)c3ccc(S(=O)(=O)CC(=O)OCC(C)(C)O)cc3)n2C)c(Cl)c1Cl [Example 09-039]
Result: Criterion met

Q: Does this compound meet the criterion IC50 < 300 nM? CCOC(=O)CS(=O)(=O)c1ccc([C@@H](CO)NC(=O)c2cc3c(Cl)c(Cl)c(C)cc3n2C)cc1 [Example 01-002]
Result: Criterion met

Q: Does this compound meet the criterion IC50 < 300 nM? CCOC(=O)CS(=O)(=O)c1ccc([C@@H](CO)NC(=O)c2cc3c(F)c(F)c(C)cc3n2C)cc1 [Example 01-028]
Result: Criterion not met

Q: Does this compound meet the criterion IC50 < 300 nM? Cc1cc2c(cc(C(=O)N[C@H](CO)c3ccc(S(=O)(=O)C(C)(C)C(=O)O)cc3)n2C)c(Cl)c1Cl [Example 07-014]
Result: Criterion met

Q: Does this compound meet the criterion IC50 < 300 nM? Cc1cc2c(cc(C(=O)N[C@H](C)c3ccc(S(=O)(=O)C4CCOC4=O)cc3)n2C)c(Cl)c1Cl (some centres unmarked) [Example 05-023]
Result: Criterion met

Q: Does this compound meet the criterion IC50 < 300 nM? Cc1cc2c(cc(C(=O)N[C@H](CO)c3ccc(S(=O)(=O)CC(=O)OCCO)cc3)n2C)c(F)c1F [Example 09-041]
Result: Criterion met

---

Answer each item with its documented IC50.
tested on: MDA-MB-468; test: 13C3 Serine Assay MDA-MB-468 (13C3 serine levels by LC/MS/MS); type: cell-based; conditions: Homo sapiens; MDA-MB-468 cells, 13C3 serine levels by LC/MS/MS; read-out: IC50 (13CSERINE)
Dear colleague, please send the value followed by its unit.

Q: Tell me reported IC50 for CC(=O)OCCOC(=O)CS(=O)(=O)c1ccc([C@@H](C)NC(=O)c2cc3c(Cl)cc(C)cc3n2C)cc1 , tested with MDA-MB-468.
Result: 69 nM

Q: Tell me reported IC50 for Cc1cc(Cl)c2cc(C(=O)N[C@H](C)c3ccc(S(=O)(=O)C(C)C(=O)OC(C)(C)C)cc3)n(C)c2c1 (stereo partly shown) , tested with MDA-MB-468.
Result: 891 nM

Q: Tell me reported IC50 for CC(C)OC(=O)CS(=O)(=O)c1ccc([C@@H](C)NC(=O)c2cc(-c3ccc(F)cc3)nn2C)cc1 , tested with MDA-MB-468.
Result: 68.4 nM

Q: Tell me reported IC50 for CC(=O)OCOC(=O)CS(=O)(=O)c1ccc([C@@H](C)NC(=O)c2cc(-c3ccccc3)nn2C)cc1 , tested with MDA-MB-468.
Result: 23.7 nM

Q: Tell me reported IC50 for CCOC(=O)CS(=O)(=O)c1ccc([C@@H](C)NC(=O)c2cc(-c3ccc(F)cc3)nn2C)cc1 , tested with MDA-MB-468.
Result: 62.1 nM

Q: Tell me reported IC50 for CONC(=O)CS(=O)(=O)c1ccc([C@@H](C)NC(=O)c2cc(-c3ccc(F)cc3)nn2C)cc1 , tested with MDA-MB-468.
Result: 6270 nM

Q: Tell me reported IC50 for Cc1cc(Cl)c2cc(C(=O)N[C@H](C)c3ccc(S(=O)(=O)CC(=O)OCC(C)C)cc3)n(C)c2c1 , tested with MDA-MB-468.
Result: 70.1 nM

Q: Tell me reported IC50 for Cc1cc(Cl)c2cc(C(=O)N[C@H](C)c3ccc(S(=O)(=O)CC(=O)OCc4cccc(C(F)(F)F)c4)cc3)n(C)c2c1 , tested with MDA-MB-468.
Result: 20.1 nM

Q: Tell me reported IC50 for Cc1cc(Cl)c2cc(C(=O)N[C@H](C)c3ccc(S(=O)(=O)CC(=O)OCCS(C)(=O)=O)cc3)n(C)c2c1 , tested with MDA-MB-468.
Result: 37.4 nM

Q: Tell me reported IC50 for Cc1cc(Cl)c2cc(C(=O)N[C@H](C)c3ccc(S(=O)(=O)C(C)(C)C(=O)O)cc3)n(C)c2c1 , tested with MDA-MB-468.
Result: 1190 nM

Q: Tell me reported IC50 for CCOC(=O)CS(=O)(=O)c1ccc([C@@H](C)NC(=O)c2cc3c(Cl)c(Cl)c(C)nc3n2C)cc1 , tested with MDA-MB-468.
Result: 72.1 nM

Q: Tell me reported IC50 for Cc1cc(Cl)c2cc(C(=O)N[C@H](C)c3ccc(S(=O)(=O)CC(=O)CCC(=O)O)cc3)n(C)c2c1 , tested with MDA-MB-468.
Result: 9640 nM

Q: Tell me reported IC50 for Cc1cc(Cl)c2cc(C(=O)N[C@H](C)c3ccc(S(=O)(=O)CC(=O)OCCO)cc3)n(C)c2c1 , tested with MDA-MB-468.
Result: 23.9 nM

Q: Tell me reported IC50 for COC(=O)CS(=O)(=O)c1ccc([C@@H](C)NC(=O)c2cc3c(Cl)c(Cl)c(C)cc3n2C)cc1 , tested with MDA-MB-468.
Result: 7 nM

Q: Tell me reported IC50 for Cc1cc(Cl)c2cc(C(=O)N[C@H](C)c3ccc(S(=O)(=O)CC(=O)NO)cc3)n(C)c2c1 , tested with MDA-MB-468.
Result: 136 nM

Q: Tell me reported IC50 for COC(=O)CS(=O)(=O)c1ccc([C@@H](CO)NC(=O)c2cc3c(Cl)c(Cl)c(C)nc3n2C)cc1 , tested with MDA-MB-468.
Result: 0.8 nM

Q: Tell me reported IC50 for COC(=O)C(C)(C)S(=O)(=O)c1ccc([C@@H](CO)NC(=O)c2cc3c(Cl)c(Cl)c(C)cc3n2C)cc1 , tested with MDA-MB-468.
Result: 0.3 nM

Q: Tell me reported IC50 for Cc1cc(Cl)c2cc(C(=O)N[C@H](C)c3ccc(S(=O)(=O)CC(=O)OCCOCCO)cc3)n(C)c2c1 , tested with MDA-MB-468.
Result: 139 nM

Q: Tell me reported IC50 for C[C@@H](NC(=O)c1cc(-c2ccc(F)cc2)nn1C)c1ccc(S(=O)(=O)CC(=O)NOC2CCN(C)CC2)cc1 , tested with MDA-MB-468.
Result: 85300 nM

Q: Tell me reported IC50 for C[C@@H](NC(=O)c1cc(-c2ccc(F)cc2)nn1C)c1ccc(S(=O)(=O)CC(=O)OCC2(C)COC2)cc1 , tested with MDA-MB-468.
Result: 103 nM

Q: Tell me reported IC50 for CO[C@@H](C)COC(=O)CS(=O)(=O)c1ccc([C@@H](C)NC(=O)c2cc3c(Cl)cc(C)cc3n2C)cc1 , tested with MDA-MB-468.
Result: 78.6 nM

Q: Tell me reported IC50 for COCCOC(=O)CS(=O)(=O)c1ccc([C@@H](C)NC(=O)c2cc3c(Cl)c(Cl)c(C)nc3n2C)cc1 , tested with MDA-MB-468.
Result: 82.8 nM

Taken from patent US11304929B2.
